Entries and their SPOT peptide array binding signal intensity values follow.
# Target system: AgBem1-D1
# Assay comment: SPOT peptide array binding signal intensity (averaged, normalized) (arbitrary units (background-subtracted, floor 0; scale differs between SH3 domains)); higher = stronger binding of the SH3 domain to the peptide

Binder: DLFKPLPEPPTELGR
Assay result: ≤ 0

Item "QGYPRQPQRPQRYHP" has what recorded SPOT peptide array binding signal intensity?
≤ 0

Dear colleague, I am looking for the recorded SPOT peptide array binding signal intensity of the following binder: "DGNEEKPLLPTRPNK"
≤ 0
